test system: biotinyl-Met-oxazolone; assay: self-aminoacylation, catalytic enhancement (BMO) (fold over background); higher = more active; k-Seq, kA / k0A0; sequences stand for … in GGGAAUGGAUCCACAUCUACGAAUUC…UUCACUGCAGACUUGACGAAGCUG
Fewer inactive variants are shown than the library holds.
RECORDED ENDPOINT: self-aminoacylation

{"SEQ": "CCACACUUCAAGCAAACGAUC [Fam1B.1 aminoacylation ribozyme variant]", "ASSAY SYSTEM": "biotinyl-Met-oxazolone", "RECORDED ENDPOINT": "self-aminoacylation", "RECORDED NUMBER": 0.44}
{"SEQ": "AUUACCGUGGUCAUCGGGUGA [Fam2.1 aminoacylation ribozyme variant]", "ASSAY SYSTEM": "biotinyl-Met-oxazolone", "RECORDED ENDPOINT": "self-aminoacylation", "RECORDED NUMBER": 11.7}
{"SEQ": "AUUCAGCUGGGUCAUCGGGUG [Fam2.2 aminoacylation ribozyme variant]", "ASSAY SYSTEM": "biotinyl-Met-oxazolone", "RECORDED ENDPOINT": "self-aminoacylation", "RECORDED NUMBER": 5.66}
{"SEQ": "CUACGUCAAACAAUCGUUCUG [Fam1A.1 aminoacylation ribozyme variant]", "ASSAY SYSTEM": "biotinyl-Met-oxazolone", "RECORDED ENDPOINT": "self-aminoacylation", "RECORDED NUMBER": 0.854}
{"SEQ": "AAGUUUACUAAUACUCGCAAG [Fam3.1 aminoacylation ribozyme variant]", "ASSAY SYSTEM": "biotinyl-Met-oxazolone", "RECORDED ENDPOINT": "self-aminoacylation", "RECORDED NUMBER": 1.18}
{"SEQ": "CUCCACUUCAAGCAAUCGGUC [Fam1B.1 aminoacylation ribozyme variant]", "ASSAY SYSTEM": "biotinyl-Met-oxazolone", "RECORDED ENDPOINT": "self-aminoacylation", "RECORDED NUMBER": 1.27}
{"SEQ": "AAGUUGGCUAAUAGUUGCAAG [Fam3.1 aminoacylation ribozyme variant]", "ASSAY SYSTEM": "biotinyl-Met-oxazolone", "RECORDED ENDPOINT": "self-aminoacylation", "RECORDED NUMBER": 1.53}
{"SEQ": "ACUGACCUAGGUCAUCGGGUG [Fam2.2 aminoacylation ribozyme variant]", "ASSAY SYSTEM": "biotinyl-Met-oxazolone", "RECORDED ENDPOINT": "self-aminoacylation", "RECORDED NUMBER": 6.84}
{"SEQ": "AUUACCCUGGUCAUAGACUGA [Fam2.1 aminoacylation ribozyme variant]", "ASSAY SYSTEM": "biotinyl-Met-oxazolone", "RECORDED ENDPOINT": "self-aminoacylation", "RECORDED NUMBER": 0.586}
{"SEQ": "CCACAUUUCAAGCACUCGGUC [Fam1B.1 aminoacylation ribozyme variant]", "ASSAY SYSTEM": "biotinyl-Met-oxazolone", "RECORDED ENDPOINT": "self-aminoacylation", "RECORDED NUMBER": 1.15}
{"SEQ": "AAGUUUGAGAAUAGUCGCAAG [Fam3.1 aminoacylation ribozyme variant]", "ASSAY SYSTEM": "biotinyl-Met-oxazolone", "RECORDED ENDPOINT": "self-aminoacylation", "RECORDED NUMBER": 1.2}
{"SEQ": "GCUCACUUCAAGCAAUCGGUC [Fam1B.1 aminoacylation ribozyme variant]", "ASSAY SYSTEM": "biotinyl-Met-oxazolone", "RECORDED ENDPOINT": "self-aminoacylation", "RECORDED NUMBER": 1.58}
{"SEQ": "AUCACCCUGGUCAUCGAGGGA [Fam2.1 aminoacylation ribozyme variant]", "ASSAY SYSTEM": "biotinyl-Met-oxazolone", "RECORDED ENDPOINT": "self-aminoacylation", "RECORDED NUMBER": 2.2}
{"SEQ": "AUUCACCUAGGCCGUCGGGUG [Fam2.2 aminoacylation ribozyme variant]", "ASSAY SYSTEM": "biotinyl-Met-oxazolone", "RECORDED ENDPOINT": "self-aminoacylation", "RECORDED NUMBER": 1.94}
